System: human PKK mRNA
Test: Antisense inhibition of human PKK mRNA in HepaRG cells, 3,000 nM (Example 1)
Type: cell-based
Settings: Table 3; HepaRG cells, electroporation with 3,000 nM antisense oligonucleotide, approx. 24 hours; PKK mRNA by RT-PCR (RTS3454), relative to untreated control cells
Strand notation (5' to 3'): a small letter for the sugar, then the base; units joined by * are phosphorothioate-linked, units joined directly phosphodiester-linked; [ ] holds rarer units or linkages, { } end groups; capitals alone tell only the bases. e = 2'-O-(2-methoxyethyl) (MOE); [5mC] = 5-methylcytosine; d = 2'-deoxy (DNA)
Provide the recorded % inhibition for the entries that follow.
Numbers only, in %.

1. 531144 (antisense eT*eG*eA*eA*eG*dA*dT*dT*d[5mC]*dT*dA*dT*dT*dT*dA*eA*e[5mC]*eA*eA*eA) [compound 531144] ... 0
2. 531121 (antisense eT*eT*eG*eG*eT*d[5mC]*dT*dA*d[5mC]*dA*dG*dA*dT*dT*d[5mC]*eA*eA*eT*eG*e[5mC]) [compound 531121] ... 72

Go through the items and report each one's % inhibition.
1. 531146 (antisense e[5mC]*e[5mC]*eA*eG*eT*dG*dT*dA*dA*dT*dT*d[5mC]*dA*dA*dA*eG*eG*eA*eG*e[5mC]) [compound 531146]
2. 531086 (e[5mC]*e[5mC]*eT*eG*e[5mC]*d[5mC]*dT*d[5mC]*d[5mC]*dT*dG*dG*d[5mC]*dA*dG*e[5mC]*e[5mC]*eT*eT*e[5mC]; antisense) [compound 531086]
3. 531142 (antisense eT*eG*eT*eT*eT*dA*dA*dA*dA*dT*dA*dT*d[5mC]*dT*d[5mC]*eT*eA*eT*eA*e[5mC]) [compound 531142]
4. 531145 (antisense eG*e[5mC]*e[5mC]*eT*eA*dG*dG*dA*dG*dA*dG*dA*dA*dA*dA*eA*eT*eA*eA*eA) [compound 531145]

## Result
40
48
8
0

----------
Provide the recorded % inhibition for the entries that follow.
Test system: human PKK mRNA
Experiment: Antisense inhibition of human PKK mRNA in HepaRG cells, 3,000 nM (Example 1)
Type: cell-based
Conditions: Table 3; HepaRG cells, electroporation with 3,000 nM antisense oligonucleotide, approx. 24 hours; PKK mRNA by RT-PCR (RTS3454), relative to untreated control cells
Strand notation (5' to 3'): a small letter for the sugar, then the base; units joined by * are phosphorothioate-linked, units joined directly phosphodiester-linked; [ ] holds rarer units or linkages, { } end groups; capitals alone tell only the bases. e = 2'-O-(2-methoxyethyl) (MOE); [5mC] = 5-methylcytosine; d = 2'-deoxy (DNA)
One number for each entry, in %.

Go through the items and report each one's % inhibition.
1. 531113 (antisense eA*eA*e[5mC]*eA*eG*dA*d[5mC]*dA*d[5mC]*dA*dT*dT*dA*dT*dT*eT*eA*eT*eA*eT) [compound 531113]
2. 531088 (eG*eG*eT*eT*eT*dT*dG*dT*dT*dT*dG*dT*dA*dA*dA*eA*eT*eT*eA*eG; antisense) [compound 531088]
3. 531157 (antisense eA*eA*eG*eT*eG*dA*dA*dT*d[5mC]*dA*dG*dA*dG*d[5mC]*dA*eG*eT*eG*eT*eA) [compound 531157]

## Result
[0, 27, 46]
